Measured values drawn from PubChem BioAssay (NCATS) for this set.

assay: qHTS drug screen for cell cycle checkpoint inhibitors in PARPi-resistant BRCA-mutant ovarian cancer cell lines. (AID 1963452); conditions: PEO1/OlaR viability, CellTiter-Glo luminescence, 96 h; measured here: PEO4 Z-AUC; stronger effect = lower value
outcome-measure: Z-AUC

CC[C@@H]([C@H](C)O)n1ncn(-c2ccc(N3CCN(c4ccc(OCC5CO[C@@](Cn6cncn6)(c6ccc(F)cc6F)C5)cc4)CC3)cc2)c1=O (some centres not stated)    -0.133
Cc1ccccc1-n1c(Cn2nc(-c3cccc(O)c3)c3c(N)ncnc32)nc2cccc(C)c2c1=O    -0.912
OC1CCC(Nc2ncc3nc(Nc4c(F)cc(F)cc4F)n([C@@H]4CCOC4)c3n2)CC1 (some centres not stated)    0.44
CC[C@H](CC#N)OC(=O)N[C@@H](C)c1cccc(NC(=O)Nc2ccc(-c3cnco3)c(OC)c2)c1    -0.852
COc1cc2ncn(-c3cc(OCc4ccccc4S(C)(=O)=O)c(C#N)s3)c2cc1OC    0.362
COC(=O)[C@H](c1ccccc1Cl)N1CCc2sccc2C1    0.952
CCCCc1ccc(NS(=O)(=O)c2ccc(C)c(C(=O)N3CCN(c4cccc(C)c4C)CC3)c2)cc1    1.44
COc1cc(Nc2nc3ccccc3nc2NS(=O)(=O)c2ccc(NC(=O)c3ccc(C)c(OC)c3)cc2)cc(OC)c1    -0.582
Cc1csc(-c2nnc(Nc3ccc(Oc4ncccc4-c4ccnc(N)n4)cc3)c3ccccc23)c1    -1.53
CCN(CCO)CCCOc1ccc2c(Nc3cc(CC(=O)Nc4cccc(F)c4)[nH]n3)ncnc2c1    -1.66
N#CC(c1ccnc(NCCc2cccnc2)n1)c1nc2ccccc2s1 (configuration not stated)    0.404
Cc1cc(-c2ncc(CC(=O)Nc3ccc(-c4cnccn4)cn3)cc2C)ccn1    -0.646

----------
test: Quantitative High-Throughput drug screen in 47 multiple myeloma cell lines against the NCATS MIPE library collection: XG1_PLB cell viability assay (AID 1919866); conditions: CellTiter-Glo ATP, 48 h; series mostly up to 45.8 µM; also: nearly all actives have a fitted effect of over 35% in size
Records with an inconclusive call do not appear. Active and inactive are the calls of the source. Calls follow the shape of the dose curve; as a rule, active = well fitted cell-killing curve with a large enough effect; inconclusive = small, poorly fitted or top-dose-only effect, or effect the other way; inactive = no such curve, though single readings can be large or run the other way.
Outcome codes: Y for active, N for inactive

COc1ccc(C=CC(=O)Nc2ccccc2C(=O)O)cc1OC    Y
CCCCC(C=O)NC(=O)C(CC(C)C)NC(=O)OCc1ccccc1 (centres undefined)    N
CCc1cccc(CC)c1NC(=O)N1Cc2[nH]nc(NC(=O)c3ccc(N4CCN(C)CC4)cc3)c2C1    Y
Cc1ccc(S(=O)(=O)OCC(=O)Nc2ccc(C(=O)O)c(O)c2)cc1    Y

----------
assay: qHTS Screen of the MIPE 4.0 Collection Against Ewings Sarcoma (EW8) (AID 1259255); conditions: EW8 Ewing sarcoma viability, CellTiter-Glo, 48 h; series mostly up to 45.8 µM; also: nearly all actives have a fitted effect of over 35% in size; also: potency is read from the fitted curve at half-maximal effect;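 as to viability: 100% = DMSO-treated cells and 0% = medium-only wells without cells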
Inconclusive results are not listed. The source made the active and inactive calls. Calls come from the whole dose curve; as a rule, active = well fitted inhibition curve with a large enough effect; inconclusive = small, poorly fitted or top-dose-only effect; inactive = no such curve, though single readings can be large or run the other way.
outcome-measure: Potency

C[C@@H]1[C@H](C)CC[C@]2(C(=O)O)CC[C@]3(C)C(=CC[C@@H]4[C@@]5(C)CC[C@H](O)C(C)(C)[C@H]5CC[C@]43C)[C@@H]12    5.4 µM (active)
NC(=O)c1ncn([C@@H]2O[C@H](CO)[C@@H](O)[C@@H]2O)n1    inactive
CN(C)CCCNC(=O)c1ccc(-c2cc(O)c3ncccc3c2)cc1    14.8 µM (active)
O=c1cc(-c2ccc(O)c(O)c2)oc2cc(O)cc(O)c12    inactive
Cc1ccc(NC(=O)c2ccc(CN3CCN(C)CC3)cc2)cc1Nc1nc(-c2cccnc2)cs1    23.5 µM (active)
COc1ccnc(CS(=O)c2nc3ccc(OC(F)F)cc3[nH]2)c1OC (stereo not drawn)    inactive
C[C@]12CC[C@@H]3c4ccc(O)cc4CC[C@H]3[C@H]1[C@@H](O)[C@@H](O)[C@H]2O    inactive
CCC(=C(c1ccc(O)cc1)c1ccc(OCCNC)cc1)c1ccccc1    26.4 µM (active)
CC(C)CN(C[C@H](O)[C@H](Cc1ccccc1)NC(=O)O[C@H]1CCOC1)S(=O)(=O)c1ccc(N)cc1    18.7 µM (active)
OCCn1cc(-c2ccc3c(c2)CCC3=NO)c(-c2ccncc2)n1    inactive
CC(C)c1c(C(=O)Nc2ccccc2)c(-c2ccccc2)c(-c2ccc(F)cc2)n1CC[C@H](O)C[C@@H](O)CC(=O)O    23.5 µM (active)
CNC1CCC(N(Cc2cccc(-c3ccncc3)c2)C(=O)c2sc3ccccc3c2Cl)CC1 (stereo not drawn)    23.5 µM (active)
CCC(=O)N1CCN(c2ccc(-n3c(=O)ccc4cnc5ccc(-c6cnc7ccccc7c6)cc5c43)cc2C(F)(F)F)CC1    0.0332 µM (active)
